# Tested on: Bacillus cereus
# assay text: Minimum Inhibitory concentration against Bacillus cereus ATCC 14579
# Format: functional
recorded endpoint: MIC (µg/mL)

Please review the following examples before continuing.
INSERT INTO measurements (molecule, test_target, recorded_endpoint, measured_result) VALUES
  ('Cc1ccc(S(=O)(=O)OC[C@]2(O)O[C@H](C)[C@@H](C)C[C@H]2C)cc1', 'Bacillus cereus', 'MIC', 0.78),
  ('C[C@@H]1C[C@H](C)[C@@H](C)O[C@@]12COC(=O)O2', 'Bacillus cereus', 'MIC', 1.56);

I: C[C@@H]1C[C@H](C)[C@@H](C)OC1O (stereo partly drawn)
II: C[C@@H]1C[C@H](C)[C@@H](C)O[C@@]1(O)CO
III: C[C@@H]1C[C@H](C)[C@@H](C)O[C@@]1(O)COC(=O)Nc1ccc(Cl)cc1
IV: C[C@@H]1C[C@H](C)[C@@H](C)O[C@@]1(O)COC(=O)c1cccs1
V: C[C@@H]1C[C@H](C)[C@@H](C)O[C@@]12COC(c1ccccc1)O2 (stereo partly drawn)
List the 5 entries from lowest MIC to highest MIC value. Give the order by naming the labels one after another as requested.
IV, III, I, II, V
